For each entry below, report its Kd value.
biological target: PsPto-PscA-LBD (Pseudomonas syringae group genomosp. 3); construct: host E. coli BL21(DE3); test: isothermal titration calorimetry; assay type: binding; details: read-out: Mean KD (μM) ± SEM
Sequence (Q882Z2 30-278): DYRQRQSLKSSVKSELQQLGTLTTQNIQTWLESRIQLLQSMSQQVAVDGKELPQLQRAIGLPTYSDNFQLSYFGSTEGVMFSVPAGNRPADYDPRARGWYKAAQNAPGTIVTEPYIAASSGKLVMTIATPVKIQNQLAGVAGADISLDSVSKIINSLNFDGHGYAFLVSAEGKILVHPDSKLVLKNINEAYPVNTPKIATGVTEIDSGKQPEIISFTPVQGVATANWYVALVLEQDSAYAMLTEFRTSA
Answers are plain numbers, in µM.

N[C@H](CC(=O)O)C(=O)O :: 1.2
N[C@@H](CC(=O)O)C(=O)O :: 1.2

INPUT: Item under review: N[C@@H](CCC(=O)O)C(=O)O . Reported Kd?
OUTPUT: 3.4
